System: Plasmodium falciparum
procedure summary: GSK_TCMDC: Inhibition of Plasmodium falciparum Dd2 in whole red blood cells, using parasite LDH activity as an index of growth. Test compounds present at 2uM
Assay type: functional
Assign Yes to entries whose Inhibition meets or exceeds 50%; assign No to the rest.

Sample answers from the record:
1) COc1ccc(NC(=O)c2ccc(C=Cc3ccc(C(F)(F)F)cc3)cc2)cc1N1CCN(C)CC1 :: No
2) COc1ccc(-c2cccc(CNCc3ccc(F)cc3)c2)cc1S(=O)(=O)NCCN1CCCC1.O=C(O)C(F)(F)F :: No
3) CC(=O)N[C@H](C(=O)Nc1cccc(-c2ccc(-c3nc4cccc(C)c4[nH]3)s2)c1)C(C)C :: No
4) CCNC(=O)Nc1cccc(-c2ccc(-c3nc4cccc(C)c4[nH]3)s2)c1 :: No
5) CCc1c(C)nc(-n2nc(C)cc2NC(=O)CCc2ccccc2)[nH]c1=O :: Yes
6) Cc1nc(N)nc(N)c1-c1cccc(Cl)c1 :: No

Inhibition >= 50% for CC1c2cccc(O)c2CCN1CCc1ccc(Cl)c(Cl)c1.Cl (centres undefined) ?
Yes

Inhibition >= 50% for CC1CN(Cc2ccc(-c3ccc(-c4nc5cc(F)ccc5[nH]4)cc3)cc2)CC(C)O1.O=C(O)C(F)(F)F (centres undefined) ?
Yes

Inhibition >= 50% for "Cc1cc(C)c(NC(=O)N2CCCN(CCCCCNC(=O)/C=C/c3ccc(Cl)c(Cl)c3)CC2)c(C)c1" ?
No

Inhibition >= 50% for "O=C1c2ccc([N+](=O)[O-])cc2C(=O)N1c1ccc2[nH]ncc2c1" ?
No

Inhibition >= 50% for "Cc1ccc(NC(=O)c2cc(Br)cc(N3CCCN(C)CC3)c2)cc1F.O=C(O)C(F)(F)F" ?
No

Inhibition >= 50% for "CS(=O)(=O)O.FC(F)(F)COc1ccc2ccccc2c1CNCCCCCCNCc1c(OCC(F)(F)F)ccc2ccccc12" ?
Yes

Inhibition >= 50% for "Nc1cc(/C=C/c2ccc([N+](=O)[O-])o2)nc2ccccc12" ?
Yes

Inhibition >= 50% for "Cc1c(F)cc(C(=O)NC2CC2)cc1-c1ccc2c(cnn2S(=O)(=O)c2ccc(C#N)cc2)c1" ?
Yes

====

Collected Inhibition values appear next to each entry.
Tested on: HepG2
procedure summary: GSK_TCMDC: Percent inhibition of human HepG2 cell line. Test compounds present at 10uM.
Format: functional
Please give a number only; it is taken to be in %.

1. O=C(NCCCCN1CCC(c2ccc([N+](=O)[O-])cc2)CC1)c1ccc(NC(=O)c2ccc(Cl)cc2)cc1 :: 15
2. Cc1ccc(Nc2nccc(NCC(O)c3cccc(C(F)(F)F)c3)n2)cc1 (centres undefined) :: 19

Look up Inhibition of "CC(=O)Nc1ccc(COc2ccc(Nc3ccnc4cc(-c5ccccn5)ccc34)cc2)cc1.Cl" and report it.
99

Look up Inhibition of "CCN(CC)CCN(Cc1ccc(-c2ccc(C(F)(F)F)cc2)cc1)C(=O)Cn1c(CCc2cccc(F)c2F)nc(=O)c2ccccc21.O=C(O)C(O)C(O)C(=O)O" and report it.
49

====

Test system: HepG2
procedure summary: GSK_TCMDC: Percent inhibition of human HepG2 cell line. Test compounds present at 10uM.
Format: functional
Assign Satisfied to entries whose Inhibition meets or exceeds 8%; assign Not satisfied to the rest.

Sample answers from the record:
1. Cc1nc2nc(N)nc(N)c2c(C)c1Cc1cccc(C(F)(F)F)c1.Cl :: Satisfied
2. Cc1ccc2nc(C)cc(N/N=C/c3cccc([N+](=O)[O-])c3)c2c1 :: Not satisfied
3. COc1ccc(CCNCCCCCCNCCc2ccc(-c3ccccc3)cc2)cc1OC.Cl :: Satisfied

Inhibition >= 8% for "O=C(O)/C=C/c1cccc(F)c1F" ?
Satisfied

Inhibition >= 8% for "Br.Clc1ccc(-c2nc(-c3ccncc3)c[nH]2)cc1Cl" ?
Not satisfied

Inhibition >= 8% for "CN(C)CCC1CCN(CCS(=O)(=O)c2cccc(Nc3ncc(-c4cccc(F)c4)cn3)c2)CC1" ?
Satisfied

Inhibition >= 8% for "O=C(Nc1ccc(Cl)cc1)c1ccc(CN2CCCN(Cc3ccccc3)CC2)cc1.O=C(O)C(F)(F)F" ?
Satisfied

====

Collected Inhibition values appear next to each entry.
Tested on: Plasmodium falciparum
procedure summary: GSK_TCMDC: Inhibition of Plasmodium falciparum 3D7 in whole red blood cells, using parasite LDH activity as an index of growth. Test compounds present at 2uM
Assay type: functional
Please give a number only; it is taken to be in %.

Look up Inhibition of "NCc1ccc(CNCc2cccc(-c3cccc(-c4nc5cc(F)ccc5[nH]4)c3)c2)cc1.O=C(O)C(F)(F)F" and report it.
100

Look up Inhibition of "O=C(NCCCCCN1CCC(c2c[nH]c3ccccc23)CC1)Nc1ccc(Cl)c(Cl)c1" and report it.
92

Look up Inhibition of "Cl.Cl.N=C(N)c1ccc(-c2cc(-c3cccc(C(=N)N)c3)on2)cc1" and report it.
96

====

Tested on: Plasmodium falciparum
procedure summary: GSK_TCMDC: Inhibition of Plasmodium falciparum Dd2 in whole red blood cells, using parasite LDH activity as an index of growth. Test compounds present at 2uM
Format: functional
Collected Inhibition values appear next to each entry.
Please give a number only; it is taken to be in %.

Please review the entries below; each comes with its answer.
1) CC1Cc2ccccc2N1S(=O)(=O)c1cc(OCC(F)(F)F)ccc1OCC(F)(F)F (centres undefined) :: 95
2) CCOc1cc(C(=O)Nc2ccc3nc(N4CCN(C)CC4)cc(C)c3c2)cc(OCC)c1OCC :: 50
3) Cc1c(Cc2ccccc2Cl)cnc2nc(N)nc(N)c12.Cl :: 96

Please examine the following record next.
Look up Inhibition of "O=C(O)C(F)(F)F.Oc1ccc(CCNc2nc(NCc3cccc(OCc4cccc(F)c4)c3)nc(N3CCNCC3)n2)cc1" and report it.
0

====

Test system: Plasmodium falciparum
procedure summary: GSK_TCMDC: Inhibition of Plasmodium falciparum 3D7 in whole red blood cells, using parasite LDH activity as an index of growth. Test compounds present at 2uM
Assay type: functional
property label: Inhibition (%)
Please give a number only; it is taken to be in %.

Please review the entries below; each comes with its answer.
1. Cc1cc(C)cc(OCC(O)CN(Cc2cc(Cl)cc(Cl)c2)C(=O)Nc2ccccc2Cl)c1 (configuration not stated) :: 93
2. CC(C)c1ccc(NC(S)=NN=Cc2ccccn2)cc1 :: 100
3. O=C(Nc1cccc(Oc2ccccc2)c1)N[C@H]1CCN(Cc2ccc(OCCCN3CCCCC3)cc2)C1 :: 100
4. COc1ccc(NC(=O)Nc2nc3ccccc3s2)cc1N1CCN(C)CC1 :: 95
5. COc1ccc(CCN2CCC(NCc3cccc(N(C)C)c3)CC2)cc1 :: 98

Please examine the following record next.
GET Inhibition | system: Plasmodium falciparum | item: O=C(C=Cc1ccc(Cl)c(Cl)c1)NCCCCCN1CCCC(CCCNC(=O)c2sc3ccccc3c2Cl)C1 (configuration not stated)
88

====

Test system: HepG2
procedure summary: GSK_TCMDC: Percent inhibition of human HepG2 cell line. Test compounds present at 10uM.
Format: functional
Collected Inhibition values appear next to each entry.
Please give a number only; it is taken to be in %.

1. O=C(/C=C/c1c(Cl)cccc1Cl)NC1CCC(CN2CCC(c3c[nH]c4ccncc34)CC2)CC1 (centres undefined) :: 78
2. Cc1cccc2nc(-c3ccc(-c4cccc(NC(=O)C(=O)c5cccn5C)c4)cc3)[nH]c12 :: 30
3. O=C1Nc2cccc3c2C1(CCCCN1CCC(c2c(-c4ccccc4)[nH]c4ccccc24)CC1)CCC3 (centres undefined) :: 18

Look up Inhibition of "COc1cc2nc(-c3ccc(Br)cc3)cc(N)c2cc1OC" and report it.
90

Look up Inhibition of "Cn1c(=O)c(-c2c(Cl)cccc2Cl)cc2cnc(Nc3ccc(N4CCOCC4)cc3)nc21" and report it.
64

Look up Inhibition of "C=C[C@H]1CN(CCCCCCC)CC[C@H]1CCN(C)c1ccnc2ccc(OC)cc12.O=C(O)C(=O)O" and report it.
22

Look up Inhibition of CC(C)(C)NC(=O)C(c1ccc(F)cc1)N(C(=O)c1ccc(CN2CCOCC2)o1)c1ccc(C2CCCCC2)cc1 (centres undefined) and report it.
0

Look up Inhibition of "O=c1ccc2ccc(F)cc2n1CCN1CCC(NCc2ccc(-c3ccccn3)s2)CC1" and report it.
0

Look up Inhibition of "O=C(O)C(F)(F)F.OCCN1CCN(Cc2ccc(-c3ccc(-c4nc5cc(C(F)(F)F)ccc5[nH]4)s3)cc2)CC1" and report it.
65

Look up Inhibition of "COc1ccc(-c2ccc(NC(=O)c3ccc(Cl)cc3)cc2)cc1CN1CCCN(C)CC1.O=C(O)C(F)(F)F" and report it.
27

Look up Inhibition of "CC1(C)NC(N)=NC(=N)N1OCc1cc(Cl)cc2c1OCOC2.Cl" and report it.
65

Look up Inhibition of "COc1ccc(CNCc2ccccc2)cc1-c1ccc(S(=O)(=O)NCCN2CCCC2)c(C)c1.O=C(O)C(F)(F)F" and report it.
33

Look up Inhibition of "O=C(Nc1cccc(CN2CCCN(Cc3ccc4c(c3)OCO4)CC2)c1)c1ccc(-c2ccccc2)cc1.O=C(O)C(F)(F)F" and report it.
48

Look up Inhibition of O=C(c1ccc(Cl)cc1)N1CCCC(C(=O)N(Cc2nnc(-c3ccccc3Cl)o2)C2CC2)C1 (centres undefined) and report it.
10

These data points were gathered from ChEMBL document CHEMBL1157539.
